Sourced from the DeepSol protein solubility set

Experiment: soluble on expression in E. coli; label from the status in PepcDB or PDB records
ASSAY READOUT: soluble on expression in E. coli

MGSDKIHHHHHHMKIKAIITGATGMVGEGVMHECLLNPDVEEVLIINRKPSGFTHAKLKEIIHTDFFNLAPVEQQLAGYNACYFCLGVSSIGMNEADYTKMTYTLTMHVAETLSRLNKDMTFCYVSGASTDSTEKGKSMWARVKGKTENDLTRLPFKDVYNFRPGYMQPTPGLKNTQKYYTYMSWMYPFLKLVFKNYVSTLKDVGLAMIRVTLFGHNKQVLEVPDIKALAKKTQFV : not soluble
SNSANAADSGTLNYEVYKYNTNDTSIANDYFNKPAKYIKKNGKLYVQITVNHSHWITGMSIEGHKENIISKNTAKDERTSEFEVSKLNGKIDGKIDVYIDEKVNGKPFKYDHHYNITYKFNGPTDVAGANAP : not soluble
